Below: a set of entries, each annotated with reported viability.
Test: growth inhibitors of H69AR lung tumor, primary screen, human, duplicate replicates (AID 580);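 note: 100% = mean luminescence of untreated wells and 0% = no signal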
Settings: H69AR lung tumor cells viability, ATP luminescence, 72 h; at 10 µM; hits give low values
The reply should be a number in %, with the unit left off.

// known answers, use as guide
>  <molecule>
Cc1ccnc(NC(=O)CCC(=O)N(CC(=O)NC2CCCCC2)c2cccc(C)c2C)c1

>  <viability / %>
86.7

$$$$
>  <molecule>
CCN(CC)CCCC1(CN)OCCc2ccccc21 (centres undefined)

>  <viability / %>
83.8

$$$$
>  <molecule>
CCOc1cc(S(=O)(=O)NCc2ccccn2)c(C)cc1C

>  <viability / %>
100

$$$$

viability for CCOC(=O)C1CCCN(CCCc2ccccc2)C1 (centres undefined) ?
90.8
